Target: T1, human BCMA protein (human, UniProt Q02223 1-54, limits assumed)
T1 sequence: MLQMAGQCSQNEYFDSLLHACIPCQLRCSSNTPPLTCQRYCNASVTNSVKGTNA
Assay: affinity to human BCMA protein, method not stated
We begin with a simple list: items and their reported pKd.
As a rule, pKd stands for the negative log10 of the concentration, concentration in M.

Here is how some binders turned out for pKd.
BCMA targeting trispecific protein 02B07 (other, trispecific; not shown: anti-albumin domain, anti-CD3 domain and the linkers of the trispecific (TriTAC) format) VHH: EVQLVESGGGLVQPGRSLTLSCAASTNIFSSSPMGWYRQAPGKQRELVAAIHGHSTLYADSVKGRFTISRDNAKNSIYLQMNSLRPEDTALYYCNKVPWGDYHPRNVTWGQGTQVTVSS : 7.80
BCMA targeting trispecific protein 01C10 (other, not shown: large carriers; small tags and cut ends, trispecific) VHH: EVQLVESGGGLVQPGRSLTLSCAASTNISSISPMGWYRQAPGKQRELVAAIHGFSTLYADSVKGRFTISRDNAKNSIYLQMNSLRPEDTALYYCNKVPWGYYHPRNVYWGQGTQVTVSS : 7.33
BCMA targeting trispecific protein 02G09 (other, trispecific; not shown: The C-terminal 6xHis tag is left out because it follows these missing domains) VHH: EVQLVESGGGLVQPGRSLTLSCAASTNIFSDSPMGWYRQAPGKQRELVAAIHGFSTLYADSVKGRFTISRDNAKNSIYLQMNSLRPEDTALYYCNKVPWGDYHPRNVAWGQGTQVTVSS : 7.46

Please turn your attention to the following entry.
Any idea what pKd was measured for BCMA targeting trispecific protein 01F12 (other, trispecific; not shown: anti-albumin domain, anti-CD3 domain and the linkers of the trispecific; the C-terminal His6 that follows them is left out) VHH: EVQLVESGGGLVQPGRSLTLSCAASTNIFRISPMGWYRQAPGKQRELVAAIHGDSTLYADSVKGRFTISRDNAKNSIYLQMNSLRPEDTALYYCNKVPWGRYHPRNVYWGQGTQVTVSS ?
7.39
